tested on: THLE-2 normal liver cells; experiment: MTT assay, normal liver cells; type: cell-based; conditions: Homo sapiens, THLE-2, mean ± SE, n = 3
We begin with a simple list: items and their reported IC50.
Dear colleague, please return just the value in µM, with no unit written.

The examples below pair each entry with its known result.
O=C1NC(=S)N(c2ccc(O)cc2)/C1=C/c1cccs1    56.6
C=CCN1C(=O)/C(=C\c2ccc(C)cc2)NC1=S    35.1
O=C1NC(=S)N(c2ccccc2)/C1=C/c1cc2ccccc2[nH]1    16.9

Consider the record given below.
**Query** Return reported IC50; argument: O=C1/C(=C\c2cccs2)NC(=S)N1c1ccccc1
**Result** 15.4
